MEASURED ON: Toxin B (TcdB) glycohydrolase, Clostridioides difficile 630
EXPERIMENT: TcdB glycohydrolase inhibitors, dose response, biochemical, cherry-pick, plate reader (AID 720512)
CONDITION: recombinant TcdB glycohydrolase activity, at 19.5 µM (top of the series)
Activity calls are given as the source filed them. How the calls were made is not given here.
MEASUREMENT TYPE: activity change, negative = inhibition

{"columns": ["COMPOUND", "MEASURED ON", "activity change, negative = inhibition"],
 "data": [
  ["CC1=C(C(=O)OCC2CCCO2)C(c2coc3ccccc3c2=O)C2=C(CCCC2=O)N1 (configuration not stated)", "Toxin B (TcdB) glycohydrolase, Clostridioides difficile 630", "inactive"],
  ["Cc1ccc(NS(=O)(=O)c2ccc(C)c(NC(=S)NCCN3CCOCC3)c2)c(C)c1", "Toxin B (TcdB) glycohydrolase, Clostridioides difficile 630", "inactive"],
  ["CC[C@H](C)[C@@H]1NC(=O)c2cc([N+](=O)[O-])cc(I)c2NCC[C@@H](C(N)=O)NC(=O)[C@H](CCCN=C(N)N)NC1=O", "Toxin B (TcdB) glycohydrolase, Clostridioides difficile 630", "inactive"],
  ["CC1(C)Cc2nc(Cl)c(C#N)cc2CO1", "Toxin B (TcdB) glycohydrolase, Clostridioides difficile 630", "inactive"],
  ["CC(=O)Nc1cc(-c2ccc(F)cc2)[nH]n1", "Toxin B (TcdB) glycohydrolase, Clostridioides difficile 630", "inactive"]
]}

Enter reported activity change, negative = inhibition observed with Toxin B (TcdB) glycohydrolase, Clostridioides difficile 630 for CCCCNC(=O)C1CCN(S(=O)(=O)c2c(C)noc2/C=C\c2ccc(OC)cc2)CC1
inactive

Quick one: CS(=O)(=O)N1CCc2cc(C(=O)Nc3ccc(O)cc3)ccc21
inactive

# repeat for Cc1ccc(C2=NS(=O)(=O)N(C)C(C(=O)NC(C)c3ccccc3)=C2)cc1 (configuration not stated)
inactive

Now give it for O=C(C[C@@H]1CC[C@H]2[C@@H](COC[C@@H](O)CN2C(=O)c2ccccn2)O1)NC1CCC1 too.
inactive

Now give it for O=C(N/C(=C\c1ccc(O)cc1)C(=O)N1CCCCC1)c1ccccc1 too.
inactive

Quick one: CN(C)CCNc1ccc(CO)c2sc3ccc(O)cc3c(=O)c12
inactive

Item: S=c1nc(-c2ccc(Cl)cc2)[nH][nH]1
inactive

Repeat for the following compound: Cc1nn(C)cc1-c1n[nH]c(=S)n1-c1ccc(F)cc1
inactive

----------
MEASURED ON: Toxin B (TcdB) glycohydrolase, Clostridioides difficile 630
EXPERIMENT: TcdB glycohydrolase inhibitors, dose response, biochemical, cherry-pick, plate reader (AID 720512)
CONDITION: recombinant TcdB glycohydrolase activity, at 19.5 µM (top of the series)
Calls of active or inactive are those of the source. No rule for the calls is given here.
MEASUREMENT TYPE: activity change, negative = inhibition

Examples with answers:
{"columns": ["COMPOUND", "activity change, negative = inhibition"],
 "data": [
  ["CCCNC(=O)Nc1ccc2c(c1)C(=O)N(C)[C@H]1CC[C@H](CC(=O)NC3CCC3)O[C@@H]1CO2", "inactive"],
  ["CC(OC(=O)C1=COCCO1)C(=O)c1ccc(Br)cc1 (centres undefined)", "inactive"],
  ["COc1ccc2nccc(/C=C/c3ccnc4ccc(OC)cc34)c2c1", "inactive"],
  ["C=CCNc1n[nH]c(=S)s1", "inactive"],
  ["COc1ccccc1OCC(=O)Nc1ccc(-c2nnc(-c3ccco3)o2)cc1", "inactive"],
  ["Nc1ccc(Sc2ccc(N)cc2)cc1", "inactive"],
  ["O=C(CSc1cccc2cccnc12)N/N=C/c1ccc(F)cc1", "inactive"],
  ["Nc1ccc2c(c1)Nc1ccccc1CC2", "inactive"],
  ["CCCc1cc(-c2n[nH]c(C(=O)OCC)c2-c2cscn2)c(O)cc1O", "inactive"],
  ["COc1ccc(C2=NS(=O)(=O)N(C)C(C(=O)N(C)Cc3ccccc3)=C2)cc1", "inactive"]
]}

Value lookup for activity change, negative = inhibition; key = CC(C)CNC(=O)C(=O)NCC1CCCN1S(=O)(=O)c1cccs1 (centres undefined)
inactive

Next record, please: O=c1c2oc3nc4c(cc3c2ncn1CCCc1ccccc1)CCCC4
inactive

Next compound up: COC(=O)[C@@]12CCCCN1[C@H](c1ccc(-c3ccccc3)c(OC)c1)[C@H]1C(=O)N(C)C(=O)[C@H]12
inactive

And COc1ccc(CNC(=O)C2CCN(S(=O)(=O)c3c(C)noc3/C=C/N(C)C)CC2)cc1 ?
inactive

// repeat for CC(Sc1nc(N)cc(=O)[nH]1)C(=O)NCC(=O)Nc1ccc(F)c(F)c1F (centres undefined) and report
inactive

Check C[C@@H]1CN([C@@H](C)CO)S(=O)(=O)c2ccc(-c3ccncc3)cc2O[C@@H]1CN(C)Cc1ccc(Oc2ccccc2)cc1 too.
inactive

How about CN1C(=O)C(c2nnc(Nc3cccc4ccccc34)s2)C2CC1(C)Oc1ccccc12 (centres undefined) ?
inactive

What do you get for COc1ccccc1Nc1nnc(SCc2cc(=O)n3ccsc3n2)s1 ?
inactive

Check COc1cc(/C=N/NC(=O)CSc2ccccn2)ccc1O too.
inactive

Now consider CN1CCN(CC(=O)Nc2cc(N(C)C)nc3ccccc23)CC1 .
inactive

Okay, and CC1CCN(CCCn2c(=S)[nH]c3c(sc4ccccc43)c2=O)CC1 ?
inactive

----------
MEASURED ON: Toxin B (TcdB) glycohydrolase, Clostridioides difficile 630
EXPERIMENT: TcdB glycohydrolase inhibitors, dose response, biochemical, cherry-pick, plate reader (AID 720512)
CONDITION: recombinant TcdB glycohydrolase activity, at 19.5 µM (top of the series)
Calls of active or inactive are those of the source. No rule for the calls is given here.
MEASUREMENT TYPE: activity change, negative = inhibition

# annotated cases, reported activity change, negative = inhibition shown
{"columns": ["COMPOUND", "MEASUREMENT TYPE", "OBSERVED MEASUREMENT"],
 "data": [
  ["O=CN(c1ccccc1)c1ccc2ccccc2c1", "activity change, negative = inhibition", "inactive"],
  ["O=C(NC(=S)NNS(=O)(=O)c1ccccc1)c1cccnc1", "activity change, negative = inhibition", "inactive"],
  ["COc1ccc(/C=C/c2onc(C)c2S(=O)(=O)N2CCC(C(=O)N3CCC(C)CC3)CC2)cc1", "activity change, negative = inhibition", "inactive"],
  ["Cc1[nH]c(-c2ccc(F)cc2)cc1C(=O)N1CCN(c2ccccc2)CC1", "activity change, negative = inhibition", "inactive"],
  ["COc1cc(/C=C(\\C#N)C(=O)N2CCCCC2)ccc1O", "activity change, negative = inhibition", "inactive"],
  ["COc1ccc(-c2cn3cc(C)ccc3n2)cc1F", "activity change, negative = inhibition", "inactive"],
  ["CC(=O)Nc1ccc(S(=O)(=O)Nc2nc3ccccc3nc2-n2ccc(=NC(=O)c3ccc(F)cc3)cc2)cc1", "activity change, negative = inhibition", "inactive"],
  ["Cc1cccc(/C=C/c2onc(C)c2S(=O)(=O)N2CCC(C(=O)N3CCCCC3)CC2)c1", "activity change, negative = inhibition", "inactive"],
  ["COc1ccccc1C1=NNC(=NCc2ccccc2)SC1", "activity change, negative = inhibition", "inactive"],
  ["COCCCNC(=O)C1CCN(S(=O)(=O)c2c(C)noc2/C=C\\c2ccc(OC)cc2)CC1", "activity change, negative = inhibition", "inactive"]
]}

# input compound: CSc1cccc(NC(=O)CCc2ccccc2)c1 ; wanted: its activity change, negative = inhibition
inactive

Oc1cc(O)cc(/C=C/c2ccc(O)c(O)c2)c1 ?
inactive

Please answer likewise for COc1ccccc1/C=C/c1onc(C)c1S(=O)(=O)N1CCC(C(=O)NC(C)C)CC1
inactive

Then this compound: CN(C)CCCNC(=O)C[C@H]1CC[C@@H]2[C@@H](COc3ccc(NC(=O)c4ccc5c(c4)OCO5)cc3C(=O)N2C)O1
inactive

Again, but for O=C(NNc1nc2c(F)cc(F)cc2s1)C1COc2ccccc2O1 (stereo unspecified)
inactive

How about COc1cc(OC)cc(C(=O)NNC(=O)CN2C(=O)NC(C)(c3ccc(C)cc3)C2=O)c1 (stereo unspecified) ?
inactive

Would you mind doing CCN(CC)S(=O)(=O)c1cc(C(=O)Nc2cccnc2Cl)ccc1Cl as well?
inactive

What about this compound? O=C(C[C@H]1CC[C@H]2[C@@H](COC[C@@H](O)CN2Cc2ccccc2)O1)NCCc1ccccc1
inactive

Try COc1ccc(CNC(=O)C2=CC(c3ccc(OC)cc3)=NS(=O)(=O)N2C)cc1 next.
inactive

Now try COc1ccc(NC(=O)Nc2nc(C)cc(C)n2)c(OC)c1 .
inactive

Quick one: CC(=O)C(Sc1nccc(-c2cccs2)n1)C(C)=O
inactive

----------
MEASURED ON: Toxin B (TcdB) glycohydrolase, Clostridioides difficile 630
EXPERIMENT: TcdB glycohydrolase inhibitors, dose response, biochemical, cherry-pick, plate reader (AID 720512)
CONDITION: recombinant TcdB glycohydrolase activity
Active and inactive are the calls of the source. No rule for the calls is given here.
Write down the outcome that applies. Available outcomes: active, inactive

How was CCNC(=O)C[C@H]1CC[C@@H]2[C@@H](COc3ccc(NC(=O)c4cccc(OC)c4)cc3C(=O)N2C)O1 classified in this test?
inactive

One more compound: CCn1c(C)nc2cc(C(=O)N/N=C/c3ccc(OC)c(O)c3)ccc21
inactive

Repeat with CC(=O)Oc1ccc(/C=N/NC(=O)CCSc2ccccc2)cc1
inactive

Next up: CC(=O)N/C(=C\c1ccccc1)C(=O)Nc1ccc(O)cc1
inactive

Thanks! And Oc1ccc(CCc2ccccn2)cc1 ?
inactive

Moving on to the next compound: CC1=NCCc2c1[nH]c1cc(O)ccc21
active

And for COc1cc(/C=C/C(=O)OCC(=O)NC(=O)NC(C)(C)C)ccc1O ?
inactive

How about this compound: O=C(O)COn1c(-c2ccc(Cl)cc2)nc2ccc(Cl)cc21
inactive

Try this compound too: CC1CCC/C(=C\c2ccc(O)cc2)C1=O (configuration not stated)
active

What do you have for CCCNC(=O)C[C@H]1CC[C@@H]2[C@@H](COc3ccc(NC(=O)c4ccc(Cl)cc4)cc3C(=O)N2C)O1 ?
inactive

Moving on to Cc1ccc(S(=O)(=O)N2CC(CBr)=CCC2c2ccccc2)cc1 (configuration not stated)
inactive

Entry COc1ccc2nc(NNC(=O)C3COc4ccccc4O3)sc2c1 (configuration not stated) please
active

Try this compound next: Nc1ccc(OCCCc2c(N)nc(N)nc2N)cc1
inactive

Proceed to COCC(=O)N1CC[C@H]2[C@@H]1c1cc(-c3ccc(OC)cc3)ccc1N(C)[C@H]2CO
inactive

Here is the next compound: CCNC(=O)C[C@H]1CC[C@@H]2[C@@H](COc3ccc(NC(=O)c4ccc5c(c4)OCO5)cc3C(=O)N2C)O1
inactive

Cool, now CN1c2ccc(-c3ccccc3)cc2[C@@H]2[C@@H](CCN2C(=O)CN2CCOCC2)[C@@H]1CO
inactive

Same again, this time with C[N+]1(CCCCSc2ccc(O)cc2)CCCCC1
inactive

Next record, please: COC(=O)/C=C/C(=O)Nc1ccc(O)c(Cl)c1
active

Also, O=C(O)c1ccc(-c2ccc(O)c(F)c2)cc1 please.
inactive

Same question for C/C(=N\Nc1cc(N2CCOCC2)ncn1)c1ccc(O)cc1 please.
inactive

Subsequent entry: CCOc1ccccc1-n1c(=S)sc2c(=O)n(-c3ccc(F)cc3)c(SCC(=O)O)nc21
inactive

Also need CCOC(=O)c1[nH]nc(-c2cc(CC)c(O)cc2O)c1-c1cscn1 , thanks.
inactive
